Target: T1, TNFR1 (Homo sapiens, UniProt P19438)
T1 chain: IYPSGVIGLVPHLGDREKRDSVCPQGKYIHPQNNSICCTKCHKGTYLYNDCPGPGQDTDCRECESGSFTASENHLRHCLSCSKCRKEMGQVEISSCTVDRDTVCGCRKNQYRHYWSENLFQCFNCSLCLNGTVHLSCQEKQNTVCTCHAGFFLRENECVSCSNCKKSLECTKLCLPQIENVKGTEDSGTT
Test: yeast display SC50
quantity.measured: apparent Kd (screen) (nM)

// E62A (designed binder) SMEEEVEKAAKEYEKKKKEAIEKHLEKLKAKDKEAAERFLKELEEAAKEYAKDEAKTMSEEAAKRRAKKYKEKVLLSELSEEEQKEIKEAEEKLVRTILKYVEEAAK : apparent Kd (screen) value = 0.446

[I] K15A (designed binder) SMEEEVEKAAKEYEAKKKEAIEKHLEKLKAKDKEAAERFLKELEEAAKEYAKDEAKTMSEEEAKRRAKKYKEKVLLSELSEEEQKEIKEAEEKLVRTILKYVEEAAK
[II] A9T (designed binder) SMEEEVEKTAKEYEKKKKEAIEKHLEKLKAKDKEAAERFLKELEEAAKEYAKDEAKTMSEEEAKRRAKKYKEKVLLSELSEEEQKEIKEAEEKLVRTILKYVEEAAK
[III] E81W (designed binder) SMEEEVEKAAKEYEKKKKEAIEKHLEKLKAKDKEAAERFLKELEEAAKEYAKDEAKTMSEEEAKRRAKKYKEKVLLSELSWEEQKEIKEAEEKLVRTILKYVEEAAK
q: Arrange items by their apparent Kd (screen) values in increasing order. Thanks in advance for listing the labels in the requested order.
a: III, II, I
